Target: Neuromedin-U receptor 2 (Homo sapiens)
Sequence (Q9GZQ4 whole entry): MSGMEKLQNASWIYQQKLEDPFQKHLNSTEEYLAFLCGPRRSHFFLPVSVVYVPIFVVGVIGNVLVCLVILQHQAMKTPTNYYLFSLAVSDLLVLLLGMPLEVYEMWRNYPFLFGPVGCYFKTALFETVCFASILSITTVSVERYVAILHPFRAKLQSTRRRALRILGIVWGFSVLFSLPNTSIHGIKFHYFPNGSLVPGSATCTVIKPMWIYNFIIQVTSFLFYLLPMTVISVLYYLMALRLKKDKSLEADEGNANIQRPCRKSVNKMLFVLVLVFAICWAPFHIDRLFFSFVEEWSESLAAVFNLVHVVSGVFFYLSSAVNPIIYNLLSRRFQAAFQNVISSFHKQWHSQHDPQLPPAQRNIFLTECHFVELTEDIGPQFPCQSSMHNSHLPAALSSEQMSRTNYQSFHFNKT
Assay: Agonist activity at human NMUR2 expressed in HEK293 cells assessed as induction of IP3 levels at 10^-5 M using myo-[2-3H(N)]-inositol after 60 mins by SPA-based topcount assay relative to NMU-8
Type: functional, cell-based
Known Emax of a selection of molecules
Give just the numeric value; % need not be written.

INSERT INTO assay_data (structure_as_smiles, quantity_unit, assay_result) VALUES
  ('CC(C)C[C@H](NC(=O)CCC1CCCCC1)C(=O)N[C@@H](CC(C)C)C(=O)N[C@@H](CN)C(=O)N1CCC[C@H]1C(=O)N[C@@H](CCCNC(=N)N)C(=O)N[C@@H](CC(N)=O)C(N)=O', '%', 91.9);

Alright, here's another molecule for you.
The reported value for `CC(=O)N[C@@H](Cc1c(C)cc(O)cc1C)C(=O)N[C@@H](Cc1ccccc1)C(=O)N[C@@H](CC(C)C)C(=O)N[C@@H](Cc1ccccc1)C(=O)N[C@@H](CCCNC(=N)N)C(=O)N1CCC[C@H]1C(=O)N[C@@H](CCCNC(=N)N)C(=O)N[C@@H](CC(N)=O)C(N)=O` in terms of Emax is 91.5

* * *

Target: Neuromedin-U receptor 2 (Homo sapiens)
Test: Agonist activity at human NMUR2 expressed in HEK293 cells assessed as induction of IP3 levels at 10^-5 M using myo-[2-3H(N)]-inositol after 60 mins by SPA-based topcount assay relative to NMU-8
Format: functional, cell-based
Square brackets hold non-standard residues; d marks the D form. Peptide text beside a SMILES is read from it. N(4-hydroxyphenethyl)Gly = O=C(O)CNCCc1ccc(O)cc1; Gly(N-4-hydroxybenzyl) = O=C(O)CNCc1ccc(O)cc1
Emax of 90% or higher: 1.0. Under 90%: 0.0.

Use these answered entries as a reference point.
INSERT INTO results (molecule, discrete_label) VALUES
  ('CC(C)C[C@H](NC(=O)[C@H](Cc1ccccc1)NC(=O)[C@H](N)Cc1ccc(O)cc1)C(=O)N[C@@H](Cc1ccccc1)C(=O)N[C@@H](CCCNC(=N)N)C(=O)N1CCC[C@H]1C(=O)N[C@@H](CCCNC(=N)N)C(=O)N[C@@H](CC(N)=O)C(N)=O', 1.0),
  ('CC(=O)N[C@@H](Cc1ccc(O)cc1)C(=O)N[C@@H](Cc1ccccc1)C(=O)N[C@@H](CC(C)C)C(=O)N(CC(=O)N[C@@H](CCCNC(=N)N)C(=O)N1CCC[C@H]1C(=O)N[C@@H](CCCNC(=N)N)C(=O)N[C@@H](CC(N)=O)C(N)=O)Cc1ccc(O)cc1 (Ac-YFL[Gly(N-4-hydroxybenzyl)]RPRN-NH2)', 0.0),
  ('CC(=O)N[C@@H](Cc1ccc(O)cc1)C(=O)N[C@@H](Cc1ccccc1)C(=O)N[C@@H](CC(C)C)C(=O)N[C@@H](Cc1ccccc1)C(=O)N[C@@H](CCCNC(=N)N)C(=O)N1CCC[C@@H]1C(=O)N[C@@H](CCCNC(=N)N)C(=O)N[C@@H](CC(N)=O)C(N)=O', 0.0);

QUERY: Determine whether this molecule has Emax no lower than 90%: CC(C)C[C@H](NC(=O)[C@H](Cc1ccccc1)NC(=O)[C@@H](N)Cc1ccc(O)cc1)C(=O)N(CCc1ccc(O)cc1)CC(=O)N[C@@H](CCCNC(=N)N)C(=O)N1CCC[C@H]1C(=O)N[C@@H](CCCNC(=N)N)C(=O)N[C@@H](CC(N)=O)C(N)=O (H-YFL[N(4-hydroxyphenethyl)Gly]RPRN-NH2)
RESULT: 1.0

QUERY: Can `CC(C)C[C@@H](NC(=O)[C@H](Cc1ccccc1)NC(=O)[C@@H](N)Cc1ccc(O)cc1)C(=O)N[C@@H](Cc1ccccc1)C(=O)N[C@@H](CCCNC(=N)N)C(=O)N1CCC[C@@H]1C(=O)N[C@@H](CCCNC(=N)N)C(=O)N[C@@H](CC(N)=O)C(N)=O` be said to have Emax at or above 90%?
RESULT: 1.0

QUERY: Hi team, for `CC(=O)N[C@@H](Cc1ccc(O)cc1)C(=O)N[C@@H](Cc1ccccc1)C(=O)N[C@@H](CC(C)C)C(=O)N(CC(=O)N[C@@H](CCCNC(=N)N)C(=O)N1CCC[C@H]1C(=O)N[C@@H](CCCNC(=N)N)C(=O)N[C@@H](CC(N)=O)C(N)=O)Cc1ccccc1` , is the recorded Emax at or above 90%?
RESULT: 0.0

QUERY: Please tell me: is the molecule `CC(=O)N[C@@H](Cc1ccc(O)cc1)C(=O)N[C@@H](Cc1ccccc1)C(=O)N[C@@H](CC(C)C)C(=O)N[C@@H](Cc1ccccc1)C(=O)N[C@@H](CCCNC(=N)N)C(=O)N1CCC[C@H]1C(=O)N[C@H](CCCNC(=N)N)C(=O)N[C@@H](CC(N)=O)C(N)=O` at or over 90% in terms of Emax?
RESULT: 1.0
